The reported measurements were obtained from patent US12240853B2.

Assay: Example 18 cynomolgus monkey PK study (SC and IM)
Assay type: in vivo, cynomolgus monkeys
Conditions: male, cynomolgus monkey, plasma, intramuscular, 20 mg/kg equivalent of EFdA, IM 20 mg/kg equivalent of EFdA; Monkey 2001; 3 days; read-out: Example 18 plasma concentrations
Reported property: concentration at 3 days (ng/mL)
State the answer as a number, implicitly in ng/mL.

Input: Recorded concentration at 3 days for C#C[C@]1(COC(=O)CCCCCCCCC)O[C@@H](n2cnc3c(N)nc(F)nc32)C[C@@H]1OC(=O)CCCCCCCCC [Example 18] , please?
Output: 0.379

----------
Assay: Example 18 cynomolgus monkey PK study (SC and IM)
Format: in vivo, cynomolgus monkeys
Conditions: male, cynomolgus monkey, plasma, intramuscular, 20 mg/kg equivalent of EFdA, IM 20 mg/kg equivalent of EFdA; Monkey 2001; 29 days; read-out: Example 18 plasma concentrations
Description: Example 18 referenced herein was made in accordance with Synthesis B. Six male cynomolgus monkeys (+1 spare) were selected from the Testing Facility's colony of non-naïve animals. The animals were assigned to the study based on acceptable health as determined by a Testing Facility veterinarian. Six animals were selected and placed into two groups of three animals each. Fasting of the animals before or after dosing was not required. […]
Reported property: concentration at 29 days (ng/mL)
Unit ng/mL implied. Number only.

Input: I am curious: what concentration at 29 days value has been reported for `C#C[C@]1(COC(=O)CCCCCCCCC)O[C@@H](n2cnc3c(N)nc(F)nc32)C[C@@H]1OC(=O)CCCCCCCCC` ?
Output: 0.155
